Entries annotated with measured MIC Staphylococcus haemolyticus (GC 4546)
- Test system: Staphylococcus sp.
- ASSAY_NOTES: In vitro antibacterial evaluation: minimum inhibitory concentration (MIC), broth dilution method
- Type: cell-based
- CONDITION_LABEL: strain GC 4546
Use µg/mL as the unit, but write only the number.

Below, each entry is followed by its recorded MIC Staphylococcus haemolyticus (GC 4546) result.
| COMPOUND | MEASURED_ON | DISPLAY_UNIT | EXPERIMENTAL_RESULT |
| --- | --- | --- | --- |
| CC(C)CC1OCC2OC(OC3C(CO)OC(Oc4ccc(CC5NC(=O)C(C(C)c6ccccc6)NC(=O)CNC(=O)C(CO)NC(=O)C(C(O)C6CNC(=N)N6C6OC(CO)C(O)C(O)C6O)NC(=O)C(C(O)C6CNC(=N)N6)NC5=O)cc4)C(O)C3O)C(O)C(O)C2O1 (stereo not shown) | Staphylococcus sp. | µg/mL | 1 |
| CC(c1ccccc1)C1NC(=O)CNC(=O)C(CO)NC(=O)C(C(O)C2CNC(=N)N2C2OC(CO)C(O)C(O)C2O)NC(=O)C(C(O)C2CNC(=N)N2)NC(=O)C(Cc2ccc(OC3OC(CO)C(OC4OC5COC(c6ccc(Oc7ccc(C(C)(C)C)cc7)cc6)OC5C(O)C4O)C(O)C3O)cc2)NC1=O (stereo not shown) | Staphylococcus sp. | µg/mL | 8 |
| CC(c1ccccc1)C1NC(=O)CNC(=O)C(CO)NC(=O)C(C(O)C2CN(Cc3ccc(C(F)(F)F)cc3)C(=N)N2C2OC(CO)C(O)C(O)C2O)NC(=O)C(C(O)C2CNC(=N)N2)NC(=O)C(Cc2ccc(OC3OC(CO)C(OC4OC5COC6(OC5C(O)C4O)C4CC5CC(C4)CC6C5)C(O)C3O)cc2)NC1=O (stereo not shown) | Staphylococcus sp. | µg/mL | 8 |

Please look at the following compound next.
MIC Staphylococcus haemolyticus (GC 4546) reading for CC(c1ccccc1)C1NC(=O)CNC(=O)C(CO)NC(=O)C(C(O)C2CNC(=N)N2C2OC(CO)C(O)C(O)C2O)NC(=O)C(C(O)C2CNC(=N)N2)NC(=O)C(Cc2ccc(OC3OC(CO)C(OC4OC(CO)C(O)C5OC6(CCCCCCCCCCCC6)OC45)C(O)C3O)cc2)NC1=O (stereo not shown) [Example 210a] : 8
